Test system: EJ cells
Experiment: Cytotoxicity assay (CCK-8) on EJ cells
Conditions: pH 7.4
metric_name: IC50
Form entry: enter the amount, then its unit.

QUERY: Let me know recorded IC50 for FeTCPP-LKLKLKGACNWLPLYPCPV (disulfide) [Gi-F] , thanks.
RESULT: 11.3 µM

QUERY: Let me know recorded IC50 for FeTCPP-LKLKLK(SA)GACNWLPLYPCPV (disulfide) [Gi-F-SA] , thanks.
RESULT: 40 µM

QUERY: Let me know recorded IC50 for FeTCPP-LKLKLK(CAA)GACLNWPYLPCPV (disulfide) [NGi-F-CAA] , thanks.
RESULT: 155 µM
